Assay: Determination of the log P values by HPLC (formic acid method)
Format: physicochemical
Settings: reversed-phase HPLC column (C 18), reversed-phase column (C 18), acidic range (pH 3.4), 55° C.
Kind request: treat 2 as inclusive, so chromatographic logP at 2 or higher is True, anything lower is False.

-- ask Form field: chromatographic logP at least 2? Entry: O=C(Nc1nn(-c2ccccc2Cl)c2ccccc12)c1ccccc1C(F)(F)F
-- reply True

-- ask Form field: chromatographic logP at least 2? Entry: O=C(Nc1nn(-c2ccccc2Cl)cc1Cl)c1ccccc1C(F)(F)F
-- reply True

-- ask Form field: chromatographic logP at least 2? Entry: O=C(Nc1ccn(-c2ncnc(F)c2F)n1)c1ccccc1C(F)(F)F
-- reply True

-- ask Form field: chromatographic logP at least 2? Entry: Fc1cccc(F)c1-n1cccc1
-- reply True

-- ask Form field: chromatographic logP at least 2? Entry: Nc1nn(-c2ccccc2Cl)cc1I
-- reply True

-- ask Form field: chromatographic logP at least 2? Entry: Nc1cc(F)c(-n2ccc(NC(=O)c3ccccc3C(F)(F)F)n2)c(F)c1
-- reply True

-- ask Form field: chromatographic logP at least 2? Entry: O=C(Nc1ccn(-c2nc(F)c(F)cc2F)n1)c1ccccc1Br
-- reply True

-- ask Form field: chromatographic logP at least 2? Entry: O=C(Nc1cc[nH]n1)c1ccccc1C(F)(F)F
-- reply False

-- ask Form field: chromatographic logP at least 2? Entry: Cn1nc(C(F)(F)F)c(C(=O)Nc2ccn(-c3cc(F)ccc3F)n2)c1F
-- reply True

-- ask Form field: chromatographic logP at least 2? Entry: CC(=O)Nc1cc(F)c(-n2ccc(NC(=O)c3ccccc3C(F)(F)F)n2)c(F)c1
-- reply True

-- ask Form field: chromatographic logP at least 2? Entry: O=C(Nc1nn(-c2ccccc2Cl)cc1Br)c1ccccc1C(F)(F)F
-- reply True

-- ask Form field: chromatographic logP at least 2? Entry: O=C(Nc1ccn(-c2cccnc2Cl)n1)c1ccccc1I
-- reply True

-- ask Form field: chromatographic logP at least 2? Entry: N#Cc1c(Cl)ccnc1-n1ccc(NC(=O)c2ccccc2C(F)(F)F)n1
-- reply True

-- ask Form field: chromatographic logP at least 2? Entry: N#Cc1ccc(C(F)(F)F)nc1-n1ccc(NC(=O)c2ccccc2C(F)(F)F)n1
-- reply True

-- ask Form field: chromatographic logP at least 2? Entry: Nc1ccn(-c2ncc(Cl)cc2F)n1
-- reply False

-- ask Form field: chromatographic logP at least 2? Entry: Nc1nn(-c2ncc(F)cc2F)c2ccc(F)cc12
-- reply True

-- ask Form field: chromatographic logP at least 2? Entry: Cc1cccc(C)c1-n1ccc(N)n1
-- reply False

-- ask Form field: chromatographic logP at least 2? Entry: Nc1ccn(-c2cccnc2Cl)n1
-- reply False

-- ask Form field: chromatographic logP at least 2? Entry: N#Cc1c(-n2ccc(NC(=O)c3ccccc3C(F)(F)F)n2)ccnc1Cl
-- reply True

-- ask Form field: chromatographic logP at least 2? Entry: O=C(Nc1ccn(-c2ncc(F)cc2F)n1)c1c(F)cccc1F
-- reply True

-- ask Form field: chromatographic logP at least 2? Entry: Nc1ccn(-c2nccnc2F)n1
-- reply False

-- ask Form field: chromatographic logP at least 2? Entry: CCCc1ccc(C#N)c(-n2ccc(NC(=O)c3ccccc3C(F)(F)F)n2)n1
-- reply True

-- ask Form field: chromatographic logP at least 2? Entry: CC(=O)c1cc(F)c(-n2ccc(NC(=O)c3ccccc3C(F)(F)F)n2)c(F)c1
-- reply True

-- ask Form field: chromatographic logP at least 2? Entry: N#Cc1cc(F)cc(F)c1-n1ccc(NC(=O)c2ccccc2C(F)(F)F)n1
-- reply True

-- ask Form field: chromatographic logP at least 2? Entry: O=C(Nc1ccn(-c2nccc(I)c2F)n1)c1ccccc1C(F)(F)F
-- reply True

-- ask Form field: chromatographic logP at least 2? Entry: Cc1cccc(C)c1-n1ccc(NC(=O)c2ccccc2Cl)n1
-- reply True

-- ask Form field: chromatographic logP at least 2? Entry: N#Cc1ccc(-n2ccc(NC(=O)c3ccccc3C(F)(F)F)n2)nc1Cl
-- reply True

-- ask Form field: chromatographic logP at least 2? Entry: O=C(Nc1nn(-c2ccccc2Cl)cc1F)c1ccccc1Cl
-- reply True

-- ask Form field: chromatographic logP at least 2? Entry: O=C(O)c1ccccc1C(=O)Nc1ccn(-c2c(F)cc([N+](=O)[O-])cc2F)n1
-- reply False

-- ask Form field: chromatographic logP at least 2? Entry: O=C(Nc1ccn(-c2cccc(F)c2F)n1)c1ccccc1Br
-- reply True

-- ask Form field: chromatographic logP at least 2? Entry: O=C(Nc1ccn(-c2c(F)cc([N+](=O)[O-])cc2F)n1)c1ccccc1C(F)(F)F
-- reply True

-- ask Form field: chromatographic logP at least 2? Entry: Nc1cnn(-c2ncc(Cl)cc2Cl)n1
-- reply False

-- ask Form field: chromatographic logP at least 2? Entry: Nc1ccn(-c2ncnc(F)c2F)n1
-- reply False

-- ask Form field: chromatographic logP at least 2? Entry: CCN(CC)c1ccc(C#N)c(-n2ccc(NC(=O)c3ccccc3C(F)(F)F)n2)n1
-- reply True

-- ask Form field: chromatographic logP at least 2? Entry: Nc1cc(F)c(-n2ccc(NC(=O)c3ccccc3C(=O)O)n2)c(F)c1
-- reply False

-- ask Form field: chromatographic logP at least 2? Entry: O=C(Nc1ccn(-c2c(F)cccc2F)n1)c1ncccc1C(F)(F)F
-- reply True

-- ask Form field: chromatographic logP at least 2? Entry: Nc1ccn(-c2cccc(F)c2F)n1
-- reply False

-- ask Form field: chromatographic logP at least 2? Entry: O=C(Nc1cnn(-c2ncc(F)cc2F)n1)c1ccccc1C(F)(F)F
-- reply True

Data provenance is patent US9802899B2.
